assay: qHTS Screen for Compounds that Selectively Target Cancer Cells with p53 Mutations: Cytotoxicity of p53 Null Cells at the Nonpermissive Temperature; settings: H1299 p53-null (neo) cells, 39C, ATPlite viability, 24 h; series mostly up to 46.1 µM; also: nearly all actives have a fitted effect of over 50% in size
Screen size: about 55,000 compounds; about 530 (0.96%) were called active. Inconclusive results (about 7%) are left out. Calls follow the shape of the dose curve; as a rule, active = well fitted cell-killing curve with a large enough effect; inconclusive = small, poorly fitted or top-dose-only effect; inactive = no such curve, though single readings can be large or run the other way. This excerpt belongs to a sample that is enriched for actives.
The reply should be one of these categories: yes (1) (active), no (0) (inactive)

Could you please tell me the result logged for CCC(CC)C(=O)N1CCc2cc(OC)c(OC)cc2C1COc1ccc(F)cc1 (stereo not drawn) in this assay?
no (0)

Could you please tell me the result logged for CCOc1ccc(C(=O)/C=C/c2cn(CC(O)CN3CCCCCC3)c3ccccc23)cc1 (stereo not drawn) in this assay?
yes (1)

Could you please tell me the result logged for COc1ccc(OC)c(NC(=O)CSC2=Nc3ccccc3C3=NC(CC(=O)NCCc4ccccc4)C(=O)N23)c1 (stereo not drawn) in this assay?
no (0)

Could you please tell me the result logged for CCc1ccc(C2CC(=O)c3c([nH]c(C(=O)OCc4ccc(C)cc4)c3C)C2)cc1 (stereo not drawn) in this assay?
no (0)

Could you please tell me the result logged for O=C(/C=C/c1cn(CC(O)CN2CCc3ccccc32)c2ccccc12)c1ccc(Br)cc1 (stereo not drawn) in this assay?
no (0)

Could you please tell me the result logged for `Cc1ccccc1CNC(=O)CSc1nnc(C)c2c(C)n(-c3ccccc3)nc12` in this assay?
no (0)

Could you please tell me the result logged for `Cc1nc2sc(C)c(C)n2c(=O)c1S(=O)(=O)NCCc1ccc(Cl)cc1` in this assay?
no (0)

Could you please tell me the result logged for `COc1ccc(OCCn2cc(C(=O)C3CCCCC3)c3ccccc32)cc1` in this assay?
no (0)

====

experiment: qHTS Screen for Compounds that Selectively Target Cancer Cells with p53 Mutations: Cytotoxicity of p53 Null Cells at the Nonpermissive Temperature; settings: H1299 p53-null (neo) cells, 39C, ATPlite viability, 24 h; series mostly up to 46.1 µM; also: nearly all actives have a fitted effect of over 50% in size
In all, about 55,000 compounds went through this assay and about 530 (0.96%) were called active. Inconclusive results (about 7%) are left out. The call rests on the fitted dose curve; in most records, active means well fitted cell-killing curve with a large enough effect; inconclusive means small, poorly fitted or top-dose-only effect; inactive means no such curve, though single readings can be large or run the other way. Shown is part of a subset that was picked to be rich in actives.
The reply should be one of these categories: active, inactive

Could you please tell me the result logged for `Cc1ccc(O)c(NC(=O)CCS(=O)(=O)c2nc(-c3ccc4c(c3)OCO4)cc(C(F)(F)F)n2)c1` in this assay?
inactive

Could you please tell me the result logged for `COc1ccc(CCNC(=O)/C(C#N)=C2\N=C(NC(=O)c3cccs3)c3ccccc32)cc1` in this assay?
inactive

Could you please tell me the result logged for `Cc1ccc(NS(=O)(=O)c2ccc3c(c2)CC(=O)N3)cc1Cl` in this assay?
inactive

Could you please tell me the result logged for `CCOc1ccc(CNC(=O)C2CCN(c3nnc(-n4cccc4CNc4ccc(C)cc4)s3)CC2)cc1OC` in this assay?
inactive

Could you please tell me the result logged for `COc1ccc(CCNc2nc(-c3ccc(F)cc3)cc(C(F)(F)F)n2)cc1OC` in this assay?
inactive

Could you please tell me the result logged for `CSc1ccccc1NC(=O)CCS(=O)(=O)c1nc(-c2cccs2)cc(C(F)(F)F)n1` in this assay?
inactive

Could you please tell me the result logged for `COc1cccc(N2CCN(S(=O)(=O)c3cc(Br)cc4c3N(C(=O)C3CC3)CC4)CC2)c1` in this assay?
inactive

Could you please tell me the result logged for `COc1ccc2oc(=O)c(-c3cn4c(n3)sc3cc(OC)ccc34)cc2c1` in this assay?
inactive

Could you please tell me the result logged for `C/C(CC(=O)Nc1ccc(Cl)cc1)=N\NC(=O)C(=O)NCCO` in this assay?
inactive

Could you please tell me the result logged for `COC(=O)c1ccccc1NC(=O)Cn1c(=O)n(-c2cccc(C(F)(F)F)c2)c(=O)c2c(C)c(C)sc21` in this assay?
inactive

Could you please tell me the result logged for `COc1cc(C(=O)Nc2ccc(-n3c(C)nc4ccccc4c3=O)cc2)cc(OC)c1OC` in this assay?
inactive

Could you please tell me the result logged for `COc1ccc(NC(=O)c2cc3cc(C)ccc3n2C)cc1` in this assay?
inactive

Could you please tell me the result logged for `CCCS(=O)(=O)c1ncc(Cl)c(C(=O)Nc2scc(-c3ccccc3)c2C(=O)OCC)n1` in this assay?
inactive

Could you please tell me the result logged for `COc1cccc2c1cc1c(=O)n(CC(=O)N3CCN(c4cccc(Cl)c4)CC3)nc(C)n12` in this assay?
inactive

Could you please tell me the result logged for `CCCn1c(SCC(=O)Nc2ccc(C)c(S(=O)(=O)N3CCOCC3)c2)n[nH]c1=O` in this assay?
inactive

Could you please tell me the result logged for `Cc1nn(Cc2ccc(F)cc2)c(C)c1NC(=O)c1cc(CC(C)C)on1` in this assay?
inactive

Could you please tell me the result logged for `CCc1nn(CCCC(=O)NCc2ccc(C)cc2)c(=O)c2cc3occc3n12` in this assay?
inactive

Could you please tell me the result logged for `O=S(=O)(NN=C1CCCCCCC1)c1ccc(Br)cc1` in this assay?
inactive

Could you please tell me the result logged for `COc1ccc(-c2cc3ccc(OCc4nn[nH]n4)cc3oc2=O)cc1` in this assay?
active

Could you please tell me the result logged for CCC1CCCCN1C(=S)Nc1ccc(SC(F)F)cc1 (stereo not given) in this assay?
inactive

====

test: qHTS Screen for Compounds that Selectively Target Cancer Cells with p53 Mutations: Cytotoxicity of p53 Null Cells at the Nonpermissive Temperature; conditions: H1299 p53-null (neo) cells, 39C, ATPlite viability, 24 h; series mostly up to 46.1 µM; also: nearly all actives have a fitted effect of over 50% in size
About 530 (0.96%) of roughly 55,000 compounds were called active. About 7% were inconclusive and are not listed. Calls come from the whole dose curve; as a rule, active = well fitted cell-killing curve with a large enough effect; inconclusive = small, poorly fitted or top-dose-only effect; inactive = no such curve, though single readings can be large or run the other way. For the sample, actives were picked, then their nearest neighbours and some compounds at random.
The reply should be one of these categories: active, inactive

Could you please tell me the result logged for `CCc1ccccc1NC(=O)Cn1c(=O)n(-c2cccc(C)c2)c(=O)c2c1c1cc(OC)ccc1n2C` in this assay?
inactive

Could you please tell me the result logged for `CCCCN(CCCNC(=O)c1cc(Nc2ccccc2OC)nc2ccccc12)c1ccccc1` in this assay?
inactive

Could you please tell me the result logged for `COc1cc(-c2cc3n(C)c(C)c(CCC(=O)Nc4ccc(F)cc4)c(=O)n3n2)cc(OC)c1OC` in this assay?
inactive

Could you please tell me the result logged for Cc1ccc(N(CC(=O)NCC(C)c2ccccc2)S(=O)(=O)N(C)C)cc1 (stereo unspecified) in this assay?
inactive

Could you please tell me the result logged for `CCN(C(=O)Cn1c(=O)nc(-c2ccccc2)c2cc(Cl)ccc21)c1cccc(C)c1` in this assay?
active

Could you please tell me the result logged for `Cc1ccc(Cl)cc1N1CCN(C(=O)CN2C(=O)COc3ccc(S(=O)(=O)N4CCOCC4)cc32)CC1` in this assay?
inactive

Could you please tell me the result logged for `O=C(COc1nc2ccccc2nc1N1CCOCC1)NCC(F)(F)F` in this assay?
inactive

Could you please tell me the result logged for `Nc1nnc(SCC(=O)Nc2ccc3nc(SCC(=O)Nc4ccccc4)sc3c2)s1` in this assay?
inactive

Could you please tell me the result logged for `CCCCOc1ccc(Cn2c(=O)oc3ccc(C)cc32)cc1OC` in this assay?
inactive

Could you please tell me the result logged for `COc1ccc(C2(CNC(=O)C(c3ccccc3)c3ccccc3)CCOCC2)cc1OC` in this assay?
inactive

Could you please tell me the result logged for `Cc1c(Cl)cccc1NC(=O)c1noc2c1CCCC2` in this assay?
inactive

Could you please tell me the result logged for `CCOC(=O)c1ccc(NC(=O)Cn2cc(S(=O)(=O)Cc3ccccc3F)c3ccccc32)cc1` in this assay?
inactive

Could you please tell me the result logged for `COc1ccccc1Nc1cc(C(=O)NCCCN(C)C2CCCCC2)c2ccccc2n1` in this assay?
active

Could you please tell me the result logged for `Cc1ccccc1C(=O)Nc1cc(C)c(O)c(-c2nc3ccccc3o2)c1` in this assay?
inactive

Could you please tell me the result logged for `O=C(Cn1c(=O)nc(-c2ccccc2)c2cc(Cl)ccc21)NCc1ccc(Cl)cc1` in this assay?
inactive

Could you please tell me the result logged for `CSc1nc(Nc2ccc(F)cc2)cc(-c2ccccc2)n1` in this assay?
active

Could you please tell me the result logged for `CC(C)(C)NC(=O)CSc1nc(-c2ccc(F)cc2)cc(C(F)(F)F)n1` in this assay?
inactive

Could you please tell me the result logged for `Fc1ccc(Nc2nc(SCc3ccccc3Cl)nc3ccccc23)cc1` in this assay?
inactive

Could you please tell me the result logged for `CCc1nnc(SCc2nc(-c3cccc(C)c3)oc2C)c2cc3sc(C)cc3n12` in this assay?
inactive

Could you please tell me the result logged for `COc1cc(C(=O)NCCc2csc3nc(-c4ccccc4C)nn23)cc(OC)c1OC` in this assay?
inactive

Could you please tell me the result logged for `C=Cc1ccc(Cn2c(C(=O)O)c(CNC3CCCC3)c3ccc(C)cc32)cc1` in this assay?
inactive
